The measurements presented in this section are drawn from ChEMBL document CHEMBL2311281.

Tested on: Pseudomonas aeruginosa
Test: Antibacterial activity against Pseudomonas aeruginosa by two fold serial dilution method
Type: functional
Task for the reader: assign each of the following molecules its reported log10 of MIC.
// stored as log10 of MIC expressed in µg/mL

Take each entry in turn and give its log10 of MIC.
1. COc1ccc2cc3[n+](cc2c1OCCN(CCn1cncn1)Cc1ccc(Cl)cc1Cl)CCc1cc2c(cc1-3)OCO2.[Cl-]
2. O=C(N[C@H](CO)[C@H](O)c1ccc([N+](=O)[O-])cc1)C(Cl)Cl

Reply:
1: 1.20; 2: 1.51

Take each entry in turn and give its log10 of MIC.
1. Clc1cccc(CN(CCBr)CCn2cncn2)c1
2. Clc1ccc(CN(CCBr)CCn2cncn2)cc1Cl
3. COc1ccc2cc3[n+](cc2c1OC)CCc1cc2c(cc1-3)OCO2
4. Fc1ccccc1CN(CCBr)CCn1cncn1
5. Fc1cccc(CN(CCBr)CCn2cncn2)c1
6. COc1ccc2cc3[n+](cc2c1OCCN(CCn1cncn1)Cc1cccc(F)c1)CCc1cc2c(cc1-3)OCO2.[Cl-]
7. Clc1ccccc1CN(CCBr)CCn1cncn1

Reply:
1: 2.41; 2: 2.11; 3: 2.41; 4: 2.11; 5: 2.11; 6: 0.90; 7: 2.11

###

Task for the reader: assign each of the following compounds its reported MIC.
Test system: Micrococcus luteus
Assay: Antibacterial activity against Micrococcus luteus ATCC 4698 by two fold serial dilution method
Format: functional
One number for each entry, in µg/mL.

Known results for compounds:
{"compound_structure": "COc1ccc2cc3[n+](cc2c1OCCN(CCn1cncn1)Cc1cccc(F)c1)CCc1cc2c(cc1-3)OCO2.[Cl-]", "display_unit": "µg/mL", "MIC": 16}
{"compound_structure": "Fc1cccc(CN(CCBr)CCn2cncn2)c1", "display_unit": "µg/mL", "MIC": 64}
{"compound_structure": "COc1ccc2cc3[n+](cc2c1OCCN(CCn1cncn1)Cc1ccc(Cl)cc1Cl)CCc1cc2c(cc1-3)OCO2.[Cl-]", "display_unit": "µg/mL", "MIC": 16}

Take each entry in turn and give its MIC.
1. Clc1ccc(CN(CCBr)CCn2cncn2)cc1Cl
2. Clc1cccc(CN(CCBr)CCn2cncn2)c1
3. Fc1ccc(CN(CCBr)CCn2cncn2)c(F)c1

Reply:
[32, 64, 32]

Take each entry in turn and give its MIC.
1. COc1ccc2cc3[n+](cc2c1OCCN(CCn1cncn1)Cc1ccc(Cl)c(Cl)c1)CCc1cc2c(cc1-3)OCO2.[Cl-]
2. COc1ccc2cc3[n+](cc2c1OCCN(CCn1cncn1)Cc1ccc(F)cc1F)CCc1cc2c(cc1-3)OCO2.[Cl-]
3. Clc1ccccc1CN(CCBr)CCn1cncn1
4. COc1ccc2cc3[n+](cc2c1OCCN(CCn1cncn1)Cc1ccccc1Cl)CCc1cc2c(cc1-3)OCO2.[Cl-]
5. Clc1ccc(CN(CCBr)CCn2cncn2)c(Cl)c1
6. O=C(N[C@H](CO)[C@H](O)c1ccc([N+](=O)[O-])cc1)C(Cl)Cl
7. COc1ccc2cc3[n+](cc2c1OCCN(CCn1cncn1)Cc1cccc(Cl)c1)CCc1cc2c(cc1-3)OCO2.[Cl-]
8. CCn1cc(C(=O)O)c(=O)c2cc(F)c(N3CCNCC3)cc21

Reply:
[16, 8, 64, 32, 32, 8, 32, 2]
